# measured_on: human recombinant adenosine A3 receptors (Homo sapiens, UniProt P0DMS8)
# Sequence (P0DMS8 whole entry): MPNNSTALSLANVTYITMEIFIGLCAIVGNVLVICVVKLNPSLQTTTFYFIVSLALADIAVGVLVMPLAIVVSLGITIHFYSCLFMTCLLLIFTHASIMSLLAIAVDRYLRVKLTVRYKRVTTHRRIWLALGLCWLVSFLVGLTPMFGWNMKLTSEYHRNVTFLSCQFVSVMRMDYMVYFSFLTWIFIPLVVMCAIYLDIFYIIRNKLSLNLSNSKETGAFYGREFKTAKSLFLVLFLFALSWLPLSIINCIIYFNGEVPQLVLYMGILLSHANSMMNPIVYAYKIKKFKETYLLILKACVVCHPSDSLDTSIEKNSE
# measurement_description: Test for affinity for adenosine A3 receptor ([125I]AB-MECA binding to CHO-K1 cell membranes)
# condition_context: [125I]AB-MECA displacement
pIC50: −log10 of the molar value.
assay_metric: pIC50

stdin: Report value: pIC50, system: human recombinant adenosine A3 receptors (Homo sapiens, UniProt P0DMS8), molecule: CCCCCC[C@@H](O)[C@@H](CCCCC)C(=O)OC[C@H]1O[C@H](O[C@H]2O[C@H](COC(=O)[C@H](CCCCC)[C@H](O)CCCCCC)[C@@H](O)[C@H](O)[C@H]2O)[C@H](O)[C@@H](O)[C@@H]1O [Production Example F-1]
stdout: 5.58

[a] CCCCCC(CCCCC)C(=O)OC[C@H]1O[C@H](O[C@H]2O[C@H](COC(=O)C(CCCCC)CCCCC)[C@@H](O)[C@H](O)[C@H]2O)[C@H](O)[C@@H](O)[C@@H]1O [Production Example F-9]
[b] CCCCCC[C@@H](O)[C@@H](CCCCC)C(=O)OC[C@H]1O[C@H](O[C@H]2O[C@H](COC(=O)[C@@H](CCCCC)[C@@H](O)CCCCCC)[C@@H](O)[C@H](O)[C@H]2O)[C@H](O)[C@@H](O)[C@@H]1O [Production Example F-13]
stdin: Out of a and b , name the one with the higher pIC50. Refer to your chosen item by its label in the answer.
stdout: a
